- Tested System: Gamma-aminobutyric acid receptor subunit alpha-3 (Homo sapiens, UniProt P18507+P28472+P34903)
- Sequence (P34903 whole entry): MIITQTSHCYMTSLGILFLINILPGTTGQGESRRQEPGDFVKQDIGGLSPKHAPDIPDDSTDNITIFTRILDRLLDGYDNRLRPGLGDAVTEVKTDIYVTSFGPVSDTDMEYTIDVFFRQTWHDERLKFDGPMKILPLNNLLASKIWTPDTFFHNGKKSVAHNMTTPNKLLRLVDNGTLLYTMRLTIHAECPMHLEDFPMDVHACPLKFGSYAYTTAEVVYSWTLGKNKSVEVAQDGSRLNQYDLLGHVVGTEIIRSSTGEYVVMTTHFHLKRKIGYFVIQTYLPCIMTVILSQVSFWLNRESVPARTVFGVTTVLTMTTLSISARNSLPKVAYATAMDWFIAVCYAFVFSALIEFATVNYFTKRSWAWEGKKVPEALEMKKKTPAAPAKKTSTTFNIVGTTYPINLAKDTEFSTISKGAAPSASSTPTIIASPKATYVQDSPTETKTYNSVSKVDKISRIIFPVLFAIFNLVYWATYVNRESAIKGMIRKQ
- Procedure Text: Binding affinity to GABAA alpha-3-beta-3-gamma-2 receptor
Outcome Measure: pKi
Scale explanation: pKi corresponds to minus log10 of a concentration expressed in moles per litre.

Consider the compound CN1CC2C(C(=O)OC(C)(C)C)=NCN2c2ccc(C#C[Si](C)(C)C)cc2C1=O (stereo unspecified) and give its measured pKi. 6.59

----------
- Tested System: GABA A receptor alpha-4/beta-3/gamma-2 (Homo sapiens, UniProt P18507+P28472+P48169)
- Procedure Text: Activity at alpha-4-beta-3-gamma-2 GABAA receptor expressed in Xenopus oocytes assessed as inhibition in GABA-induced current by voltage clamp assay
Outcome Measure: EC50 (µM)
Record the value in µM, omitting the unit from your answer.

Consider the compound C#Cc1ccc2c(c1)C(=O)N(C)Cc1c(C(=O)OC(C)(C)C)ncn1-2 and give its measured EC50. 324

----------
- Tested System: GABA-A receptor; alpha-1/beta-3/gamma-2 (Homo sapiens, UniProt P14867+P18507+P28472)
- Sequence (P14867 whole entry): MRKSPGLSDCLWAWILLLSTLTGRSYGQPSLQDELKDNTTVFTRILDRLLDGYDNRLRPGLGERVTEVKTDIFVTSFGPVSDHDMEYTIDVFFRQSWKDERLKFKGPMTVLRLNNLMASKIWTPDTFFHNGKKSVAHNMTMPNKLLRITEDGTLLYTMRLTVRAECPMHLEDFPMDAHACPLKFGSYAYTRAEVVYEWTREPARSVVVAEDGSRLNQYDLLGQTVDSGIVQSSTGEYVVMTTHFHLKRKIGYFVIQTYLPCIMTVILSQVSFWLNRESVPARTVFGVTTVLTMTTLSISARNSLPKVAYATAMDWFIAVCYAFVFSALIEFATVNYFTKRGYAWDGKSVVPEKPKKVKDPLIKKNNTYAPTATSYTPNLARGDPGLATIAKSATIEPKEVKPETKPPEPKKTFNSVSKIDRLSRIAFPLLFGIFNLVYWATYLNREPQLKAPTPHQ
- Sequence (P18507 whole entry): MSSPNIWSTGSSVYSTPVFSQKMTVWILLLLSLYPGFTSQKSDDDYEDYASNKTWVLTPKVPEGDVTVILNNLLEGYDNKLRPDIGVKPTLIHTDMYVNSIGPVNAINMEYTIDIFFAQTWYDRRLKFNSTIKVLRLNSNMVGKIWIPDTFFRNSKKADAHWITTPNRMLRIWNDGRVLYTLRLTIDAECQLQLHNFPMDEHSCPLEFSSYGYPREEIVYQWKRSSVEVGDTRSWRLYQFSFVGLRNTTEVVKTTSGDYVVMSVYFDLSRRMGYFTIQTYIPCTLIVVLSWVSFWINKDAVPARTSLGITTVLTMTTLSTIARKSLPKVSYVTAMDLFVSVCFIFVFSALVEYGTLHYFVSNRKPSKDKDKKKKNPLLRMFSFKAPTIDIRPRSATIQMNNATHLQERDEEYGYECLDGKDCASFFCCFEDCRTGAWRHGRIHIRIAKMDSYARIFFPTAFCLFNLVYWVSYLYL
- Sequence (P28472 whole entry): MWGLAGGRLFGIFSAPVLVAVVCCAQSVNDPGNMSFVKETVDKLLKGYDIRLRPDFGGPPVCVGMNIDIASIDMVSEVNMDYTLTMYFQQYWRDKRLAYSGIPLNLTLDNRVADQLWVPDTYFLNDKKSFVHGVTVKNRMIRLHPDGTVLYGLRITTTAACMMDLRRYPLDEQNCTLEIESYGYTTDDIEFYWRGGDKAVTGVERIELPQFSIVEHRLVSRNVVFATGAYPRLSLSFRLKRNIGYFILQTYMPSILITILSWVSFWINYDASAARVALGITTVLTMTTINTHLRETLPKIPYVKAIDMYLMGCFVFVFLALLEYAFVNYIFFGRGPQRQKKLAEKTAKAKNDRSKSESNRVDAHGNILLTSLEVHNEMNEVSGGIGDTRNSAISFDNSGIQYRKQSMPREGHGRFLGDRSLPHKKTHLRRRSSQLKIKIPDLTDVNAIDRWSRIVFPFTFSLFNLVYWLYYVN
- Procedure Text: Binding affinity to GABAA alpha-1-beta-3-gamma-2 receptor
- Type: protein-complex assay
# pKi per record follows
Scale explanation: pKi corresponds to minus log10 of a concentration expressed in moles per litre.

Compound: CCOCc1ncn2c3ccc(Cl)cc3c(=O)n(C)c12
pKi: 6.30
--
Compound: CC(=O)c1ncn2c3ccc(Cl)cc3c(=O)n(C)c12
pKi: 4.76

Consider the compound CCc1ncn2c3ccc(Cl)cc3c(=O)n(C)c12 and give its measured pKi. 6.39

Consider the compound Cn1c(=O)c2cc(Cl)ccc2n2cnc(C(=O)OCC3CC3)c12 and give its measured pKi. 7.79

Consider the compound Cn1c(=O)c2cc(Cl)ccc2n2cnc(C(=O)OC(C)(C)C)c12 and give its measured pKi. 7.76
